Source listed as PubChem BioAssay AID1963850.

In this section we review reported pIC50 values for a set of compounds.
# Test system: 192522-019-R-J2-PDC complex tumor spheroid viability;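 note: spheroids exposed to drugs for seven days before reading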
# test-name: Anticancer human tumor 192522-019-R-J2-PDC patient-derived colon adenocarcinoma cell line growth inhibition [POLQ]
# condition-details: curve of first compound; second compound 1 µM
pIC50: −log10 of the molar value.
measurement-kind: pIC50

COc1cc2cc(C(=O)CCC(=O)O)sc2cc1OC + Cc1cccc(N(C)C(=O)C2C(O)CCN2c2nc(C)cc(C(F)(F)F)c2C#N)c1	< 5.00
CC1COCCN1c1cc(-c2ccnn2C)c2ccnc(-c3ccn[nH]3)c2n1 (stereo not given) + COC1C(OC(N)=O)C(O)C(Oc2ccc3c(O)c(NC(=O)c4ccc(O)c(CC=C(C)C)c4)c(=O)oc3c2C)OC1(C)C	6.52
CC(C)n1c(=O)n(C)c2cnc3cc(F)c(-c4ccc(OCCCN5CCCCC5)nc4)cc3c21 + Cc1cccc(N(C)C(=O)C2C(O)CCN2c2nc(C)cc(C(F)(F)F)c2C#N)c1	< 5.00
COc1cccc(OCCCN)c1-c1cc(Nc2cnc(C#N)cn2)n[nH]1 + Cc1cccc(N(C)C(=O)C2C(O)CCN2c2nc(C)cc(C(F)(F)F)c2C#N)c1	7.15
CCc1cc2c(N3CCc4c(cc(Cn5ccnc5)cc4-c4cn(C)nc4C(F)(F)F)C3=O)cc(C)nc2c(OC)n1 + Cc1cccc(N(C)C(=O)C2C(O)CCN2c2nc(C)cc(C(F)(F)F)c2C#N)c1	< 5.00
C#Cc1c(F)ccc2cc(O)cc(-c3ncc4c(N5CC6CCC(C5)N6)nc(OCC56CCCN5CC(F)C6)nc4c3F)c12 (stereo not given) + COC1C(OC(N)=O)C(O)C(Oc2ccc3c(O)c(NC(=O)c4ccc(O)c(CC=C(C)C)c4)c(=O)oc3c2C)OC1(C)C	< 5.00
COc1cccc2c1C(=O)c1c(O)c3c(c(O)c1C2=O)CC(O)(C(=O)CO)CC3OC1CC(N)C(O)C(C)O1 (stereo not given) + COC1C(OC(N)=O)C(O)C(Oc2ccc3c(O)c(NC(=O)c4ccc(O)c(CC=C(C)C)c4)c(=O)oc3c2C)OC1(C)C	< 5.00
COc1cc2cc(C(=O)CCC(=O)O)sc2cc1OC + Nc1ccc(C#CCN(C(=O)Cc2ncc(C(F)(F)F)cc2C(F)(F)F)c2ccc(F)cc2)nn1	< 5.00
CCc1cc2c(N3CCc4c(cc(Cn5ccnc5)cc4-c4cn(C)nc4C(F)(F)F)C3=O)cc(C)nc2c(OC)n1 + Nc1ccc(C#CCN(C(=O)Cc2ncc(C(F)(F)F)cc2C(F)(F)F)c2ccc(F)cc2)nn1	< 5.00
CC[C@@]1(O)C(=O)OCc2c1cc1n(c2=O)Cc2cc3c(CN(C)C)c(O)ccc3nc2-1 + COC1C(OC(N)=O)C(O)C(Oc2ccc3c(O)c(NC(=O)c4ccc(O)c(CC=C(C)C)c4)c(=O)oc3c2C)OC1(C)C	< 7.00
